tested-target: opioid δ receptor (Homo sapiens, UniProt P41143)
Construct: expressed in transfected cells; host or cells: CHO cells
Sequence (P41143 whole entry): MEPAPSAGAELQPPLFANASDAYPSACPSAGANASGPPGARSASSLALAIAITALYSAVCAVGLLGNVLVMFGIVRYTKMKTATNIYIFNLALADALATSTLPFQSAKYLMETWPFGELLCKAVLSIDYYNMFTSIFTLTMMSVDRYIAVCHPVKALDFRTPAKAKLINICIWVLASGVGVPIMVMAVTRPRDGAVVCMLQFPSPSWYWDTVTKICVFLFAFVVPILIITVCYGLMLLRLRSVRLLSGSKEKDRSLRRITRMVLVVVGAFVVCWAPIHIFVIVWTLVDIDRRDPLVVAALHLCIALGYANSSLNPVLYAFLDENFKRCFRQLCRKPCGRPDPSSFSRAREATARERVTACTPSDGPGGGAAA
method-summary: Opioid receptor functional test (Lance Ultra cAMP Kit), δ receptor agonist activity
Assay type: cell-based
condition-parameters: maximum response relative to SNC80 taken as 100%; hydrochloride was used; read-out: δ Receptor Emax
molecules and their reported Emax
Form entry: value (%) — number only.

| molecule | measured-metric | value-unit | quantitative-readout |
| --- | --- | --- | --- |
| O=C(c1cccc(Cl)c1)N1C[C@H]2C[C@@]34CC[C@@H]1[C@@H]2[C@@]31CCN(CC2CC2)[C@@H]4Cc2ccc(O)cc21 [Compound 79] | Emax | % | 75 |
| Cc1cc(C)nc(N2C[C@H]3C[C@@]45CCC2C3[C@@]42CCN(CC3CC3)[C@@H]5Cc3cccc(O)c32)n1 (stereo partly drawn) [Compound 293] | Emax | % | 91 |
| C[C@H]1[C@H]2C[C@@]34CC[C@H]([C@@H]2[C@]32CCN(CC3CC3)[C@@H]4Cc3ccc(O)cc32)N1C(=O)c1ccccc1 [Compound 334] | Emax | % | 87 |
| O=C(c1ccccc1)N1C[C@H]2C[C@@]34CC[C@@H]1[C@@H]2[C@@]31CCN(CCF)[C@@H]4Cc2ccc(O)cc21 [Compound 84] | Emax | % | 99 |

**Q:** Could you share what Emax was measured for Oc1ccc2c(c1)C13C(O)CN(CC4CC4)C(C2)C12CCC1C3[C@@H](CN1Cc1ccccc1)O2 (stereo partly drawn) [Compound 329] , tested on opioid δ receptor (Homo sapiens, UniProt P41143)?
**A:** 76

**Q:** Could you share what Emax was measured for Oc1ccc2c(c1)[C@]13CCN(CC4CC4)[C@H](C2)[C@]12CC[C@@H]1[C@H]3[C@@H](CN1c1ccccc1)O2 [Compound 31] , tested on opioid δ receptor (Homo sapiens, UniProt P41143)?
**A:** 46

====

molecules and their reported EC50
tested-target: opioid κ receptor (Homo sapiens)
Construct: expressed in transfected cells; host or cells: CHO cells
method-summary: Opioid receptor functional test (Lance Ultra cAMP Kit), κ receptor agonist activity
Type: cell-based
condition-parameters: CHO cells expressing κ opioid receptor, 10 μM forskolin, cAMP; hydrochloride was used; read-out: κ Receptor EC50 value

| molecule | tested-target | EC50 |
| --- | --- | --- |
| O=C(N1CCCCC1)N1C[C@H]2CC34CCC1C2C31CCN(CC2CC2)C4Cc2ccc(O)cc21 (stereo partly shown) | opioid κ receptor (Homo sapiens) | > 1 nM |

**Q:** Quick one: EC50 for COc1cc2c(cc1[N+](=O)[O-])C[C@H]1N(CC3CC3)CC[C@@]23C2C4CC[C@@]13C[C@@H]2CN4c1nc(C)cc(C)n1 (stereo partly shown) ?
**A:** > 500 nM

**Q:** Quick one: EC50 for Cc1cc(C)nc(N2C[C@H]3CC45CCC2C3C42CCN(C[C@H](C)O)C5Cc3ccc(O)cc32)n1 (stereo partly shown) ?
**A:** > 100 nM

**Q:** Quick one: EC50 for Cc1cc(C)nc(N2C[C@H]3CC45CCC2C3C42CCN(CC3CC3)C5Cc3ccccc32)n1 (stereo partly shown) ?
**A:** > 500 nM

**Q:** Quick one: EC50 for CC(C)NC(=O)N1C[C@H]2CC34CCC1C2C31CCN(CC2CC2)C4Cc2ccc(O)cc21 (stereo partly shown) ?
**A:** < 1 nM

**Q:** Quick one: EC50 for CC(C)N(Cc1ccccc1)C(=O)N1C[C@H]2C[C@@]34CCC1C2[C@@]31CCN(CC2CC2)[C@@H]4Cc2ccc(O)cc21 (stereo partly shown) ?
**A:** > 1 nM

**Q:** Quick one: EC50 for Nc1ccc2c(c1)[C@]13CCN(CC4CC4)[C@H](C2)[C@]12CCC1C3[C@@H](CN1C(=O)c1ccccc1)O2 (stereo partly shown) ?
**A:** > 100 nM

**Q:** Quick one: EC50 for CC(C)COC(=O)N1C[C@H]2CC34CCC1C2C31CCN(CC2CC2)C4Cc2ccc(O)cc21 (stereo partly shown) ?
**A:** > 1 nM

**Q:** Quick one: EC50 for Oc1ccc2c(c1)C13CCN(CC4CC4)C(C2)C12CCC1C3[C@@H](CN1c1nc(-c3ccccc3)cs1)C2 (stereo partly shown) ?
**A:** > 10 nM

**Q:** Quick one: EC50 for "C[C@H]1[C@H]2C[C@@]34CC[C@H]([C@@H]2[C@]32CCN(CC3CC3)[C@@H]4Cc3ccc(O)cc32)N1C(=O)c1ccccc1" ?
**A:** > 1 nM

====

molecules and their reported Emax at 10 µM
tested-target: opioid κ receptor (Homo sapiens, UniProt P41145)
Construct: expressed in transfected cells; host or cells: CHO cells
Sequence (P41145 whole entry): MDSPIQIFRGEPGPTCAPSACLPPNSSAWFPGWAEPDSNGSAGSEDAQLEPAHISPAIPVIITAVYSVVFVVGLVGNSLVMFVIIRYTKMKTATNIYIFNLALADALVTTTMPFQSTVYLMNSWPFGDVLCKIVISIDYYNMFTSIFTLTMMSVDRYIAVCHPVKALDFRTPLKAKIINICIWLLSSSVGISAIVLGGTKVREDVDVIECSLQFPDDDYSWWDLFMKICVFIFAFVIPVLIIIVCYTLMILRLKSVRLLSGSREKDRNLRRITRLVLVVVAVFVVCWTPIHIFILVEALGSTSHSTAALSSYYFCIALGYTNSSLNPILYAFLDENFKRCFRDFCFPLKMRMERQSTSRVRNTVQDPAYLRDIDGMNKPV
method-summary: Opioid receptor functional test (Lance Ultra cAMP Kit), κ receptor agonist activity
Assay type: cell-based
condition-parameters: maximum concentration (10 μM), reaction did not reach the maximum, EC50 N.C.; relative to U-69593; hydrochloride was used; read-out: κ Receptor responce rate at the maximum concentration (reference value)
Procedure: Functional activities of the compounds of the present invention for the μ, […], and κ opioid receptors were investigated. The test was performed according to a prescribed method by using Lance Ultra cAMP Kit (Perkin-Elmer). The agonist activities were evaluated as follows. […] Then, the cAMP detection reagent included in the kit was added, and after 1 hour, time-resolved fluorescence measurements were performed by using the EnVision plate reader (Perkin-Elmer). […]
Form entry: value (%) — number only.

The cases that follow already have their Emax at 10 µM on record.
| molecule | Emax at 10 µM [%] |
| --- | --- |
| O=C(c1ccccc1)N1C[C@H]2C[C@@]34CC[C@@H]1[C@@H]2[C@@]31CCN(CC2CC2)[C@@H]4Cc2ccc(O)cc21 | 5.5 |
| O=C(c1ccco1)N1C[C@H]2O[C@@]34CC[C@@H]1[C@@H]2[C@@]31CCN(CC2CC2)[C@@H]4Cc2ccc(O)cc21 | 12 |

**Q:** Quick one: Emax at 10 µM for "O=S(=O)(c1ccccc1)N1C[C@H]2O[C@@]34CC[C@@H]1[C@@H]2[C@@]31CCN(CC2CC2)[C@@H]4Cc2ccc(O)cc21" ?
**A:** 19

**Q:** Quick one: Emax at 10 µM for "O=C(c1cccc(Cl)c1)N1C[C@H]2C[C@@]34CC[C@@H]1[C@@H]2[C@@]31CCN(CC2CC2)[C@@H]4Cc2ccc(O)cc21" ?
**A:** 9.6

**Q:** Quick one: Emax at 10 µM for "O=C(c1ccccc1)N1C[C@H]2C[C@@]34CC[C@@H]1[C@@H]2[C@@]31CCN(CCF)[C@@H]4Cc2ccc(O)cc21" ?
**A:** 5.9

**Q:** Quick one: Emax at 10 µM for Cc1cc(C)nc(N2C[C@H]3CC45CCC2C3C42CCN(CC(F)(F)c3ccccc3)C5Cc3ccc(O)cc32)n1 (stereo partly drawn) ?
**A:** 11

====

tested-target: opioid κ receptor (Homo sapiens)
Construct: expressed in transfected cells; host or cells: CHO cells
method-summary: Opioid receptor functional test (Lance Ultra cAMP Kit), κ receptor agonist activity
Format: cell-based
condition-parameters: maximum response relative to U-69593 taken as 100%; hydrochloride was used; read-out: κ Receptor Emax
compounds and their reported Emax
Form entry: value (%) — number only.

| compound | tested-target | Emax (%) |
| --- | --- | --- |
| Cc1cc(C)nc(N2C[C@H]3C[C@@]45CCC2C3[C@@]42CCN(CC3CC3)[C@@H]5Cc3cccc(O)c32)n1 (some centres unmarked) | opioid κ receptor (Homo sapiens) | 51 |

**Q:** Quick one: Emax for CC(C)NC(=O)N1C[C@H]2CC34CCC1C2C31CCN(CC2CC2)C4Cc2ccc(O)cc21 (some centres unmarked) ?
**A:** 37

**Q:** Quick one: Emax for Oc1ccc2c(c1)C13CCN(CC4CC4)C(C2)C12CCC1C3[C@@H](CN1c1nc(-c3ccccc3)cs1)C2 (some centres unmarked) ?
**A:** 47

**Q:** Quick one: Emax for CC(C)COC(=O)N1C[C@H]2CC34CCC1C2C31CCN(CC2CC2)C4Cc2ccc(O)cc21 (some centres unmarked) ?
**A:** 12

**Q:** Quick one: Emax for "Oc1ccc2c(c1)[C@]13CCN(CC4CC4)[C@H](C2)[C@]12CC[C@@H]1[C@H]3[C@@H](CN1c1ccccc1)O2" ?
**A:** 23

**Q:** Quick one: Emax for CC(C)N(Cc1ccccc1)C(=O)N1C[C@H]2C[C@@]34CCC1C2[C@@]31CCN(CC2CC2)[C@@H]4Cc2ccc(O)cc21 (some centres unmarked) ?
**A:** 47

**Q:** Quick one: Emax for "C[C@H]1[C@H]2C[C@@]34CC[C@H]([C@@H]2[C@]32CCN(CC3CC3)[C@@H]4Cc3ccc(O)cc32)N1C(=O)c1ccccc1" ?
**A:** 39
